As shown below, each of these molecules has a reported BET surface area value.
- assay explanation: specific surface area by the BET method
- Type: physicochemical
Provide a numeric answer, followed by its unit.

{"molecule": "O=C([O-])[O-].[La+3].[La+3].[O-2].[O-2] [Sample 5, La2O2CO3]", "reported measurement": "18 m^2/g"}

Would you kindly share the measured BET surface area for O=C([O-])[O-].[La+3].[La+3].[O-2].[O-2] [Sample 8, La2CO5] ?
11.9 m^2/g

* * *

As shown below, each of these compounds has a reported % Analyte Removed Pb value.
- assay explanation: binding efficiency test, spiked water
- experimental context: 0.50 g in 30.0 ml spike solution, approximately 1 mg/l of each element, 18 hrs, room temperature
Please respond with the number in % and leave the unit unwritten.

Would you kindly share the measured % Analyte Removed Pb for O.O.O.O.O=C([O-])[O-].O=C([O-])[O-].O=C([O-])[O-].[La+3].[La+3] [La2(CO3)3•4H2O, reference compound] ?
90

Similarly, `[La+3].[La+3].[O-2].[O-2].[O-2]` ?
92

Similarly, `[O]=[Ti]=[O]` ?
97

Similarly, O=C([O-])[O-].O=C([O-])[O-].[Ti+4] [Ti(CO3)2, Ti carbonate] ?
98

Similarly, O=C([O-])[O-].[La+3].[La+3].[O-2].[O-2] [Compound B, anhydrous lanthanum oxycarbonate] ?
99

Similarly, O=C([O-])[O-].[La+3].[OH-] [A, lanthanum carbonate hydroxide] ?
98

Similarly, [O]=[La][Cl] [LaOCl, lanthanum oxychloride] ?
99
